SUBJECT_OF_TEST: OX2 (Homo sapiens, UniProt O43614)
Construct: expressed in transfected cells; host or cells: CHO (CHO-OX2, kept under selection antibiotic)
Sequence (O43614 whole entry): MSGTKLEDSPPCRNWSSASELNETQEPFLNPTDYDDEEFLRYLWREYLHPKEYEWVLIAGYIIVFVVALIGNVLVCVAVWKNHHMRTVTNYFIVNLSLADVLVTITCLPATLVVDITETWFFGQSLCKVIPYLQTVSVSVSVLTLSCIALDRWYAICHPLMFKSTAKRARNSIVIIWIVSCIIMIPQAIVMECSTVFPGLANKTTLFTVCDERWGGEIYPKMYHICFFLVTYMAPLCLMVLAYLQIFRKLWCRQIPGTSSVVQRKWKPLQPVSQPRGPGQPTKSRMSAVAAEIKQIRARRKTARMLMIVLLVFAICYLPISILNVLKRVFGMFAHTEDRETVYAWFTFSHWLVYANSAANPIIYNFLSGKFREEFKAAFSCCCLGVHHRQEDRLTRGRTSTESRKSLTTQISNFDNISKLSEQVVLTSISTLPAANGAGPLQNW
PROTOCOL_TEXT: Orexin receptor cell-based functional assay, [Ca2+]i by FLIPR, CHO-OX2 cells
APPLIED_CONDITIONS: [Ca2+]i by FLIPR, antagonist dose-range 0.1 nM-10 μM, EC90 of OXA, read-out: OX2
# IC50 per entry

Solved cases below.
Cc1cccc(-n2nccn2)c1C(=O)N1CCC[C@@H](C)[C@H]1CNc1ccc(C(F)(F)F)cn1; > 5 µM
C[C@@H]1CCCN(C(=O)c2c(F)ccc(F)c2-n2nccn2)[C@@H]1CNc1ncc(C(F)(F)F)cn1; > 5 µM

Turning now to a further compound:
(Q) Give recorded IC50. Cc1cc(F)cc(C(=O)N2CCC[C@@H](C)[C@H]2CNc2ncc(C(F)(F)F)cn2)c1-n1nccn1
(A) > 1 µM

---

SUBJECT_OF_TEST: CYP3A4 (Homo sapiens, UniProt P08684)
Construct: pre-incubated with human liver microsomes and NADPH; from tissue; host or cells: human liver microsomes
Sequence (P08684 whole entry): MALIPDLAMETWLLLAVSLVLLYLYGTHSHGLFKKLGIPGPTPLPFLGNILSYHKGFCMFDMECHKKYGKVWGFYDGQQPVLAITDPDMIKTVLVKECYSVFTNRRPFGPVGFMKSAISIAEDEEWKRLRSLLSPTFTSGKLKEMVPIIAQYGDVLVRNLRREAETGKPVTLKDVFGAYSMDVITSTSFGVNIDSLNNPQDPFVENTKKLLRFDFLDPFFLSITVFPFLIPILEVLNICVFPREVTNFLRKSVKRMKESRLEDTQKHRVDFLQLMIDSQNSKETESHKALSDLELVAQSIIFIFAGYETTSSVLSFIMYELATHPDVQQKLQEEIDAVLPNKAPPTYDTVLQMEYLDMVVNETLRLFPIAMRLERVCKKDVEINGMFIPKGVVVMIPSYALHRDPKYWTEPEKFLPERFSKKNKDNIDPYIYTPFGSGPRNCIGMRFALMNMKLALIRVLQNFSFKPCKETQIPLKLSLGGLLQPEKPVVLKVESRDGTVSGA
PROTOCOL_TEXT: Cytochrome P450 inhibition assay (midazolam hydroxylation)
Type: in vitro ADME
APPLIED_CONDITIONS: human, human liver microsomes, probe midazolam (hydroxylation to 1′-hydroxymidazolam), 10 μM test compound, midazolam at approximately its Km
OBSERVATION_TYPE: inhibition at 10 µM (%)
All answers are understood in %, so give the number only.

(Q) Give recorded inhibition at 10 µM. Cc1ccc(-c2ccn(C)n2)c(C(=O)N2CCC[C@@H](C)[C@H]2CNc2ccc(C(F)(F)F)cn2)c1 [Example A18]
(A) 95

---

# pIC50 per entry
SUBJECT_OF_TEST: OX1 (Homo sapiens, UniProt O43613)
Construct: expressed in transfected cells; host or cells: CHO (CHO-OX1, kept under selection antibiotic)
PROTOCOL_TEXT: Orexin receptor cell-based functional assay, [Ca2+]i by FLIPR, CHO-OX1 cells
APPLIED_CONDITIONS: Table 2; CHO-OX1 cells, EC90 of OXA; read-out: IC50 Bioactivity OX1
pIC50: −log10 of the molar value.

Solved cases below.
CNC1CCC(CNC(=O)c2cccc3cccnc23)N(C(=O)c2sc(C)nc2-c2ccccc2)C1 (racemic); > 5.00
Cc1nc(-c2ccccc2)c(C(=O)N2CC3CCCCC3C2CNC(=O)c2cccc3cccnc23)s1 (single isomer, unassigned); < 5.70

(Q) Give recorded pIC50. Cc1ccc(-c2cnn(CCN3CCOCC3)c2)c(C(=O)N2CCC[C@@H](C)[C@H]2CNc2ccc(C(F)(F)F)cn2)c1 (racemic)
(A) < 6.00

---

SUBJECT_OF_TEST: CYP3A4 (Homo sapiens)
Construct: pre-incubated with human liver microsomes and NADPH; from tissue; host or cells: human liver microsomes
PROTOCOL_TEXT: Cytochrome P450 inhibition assay (midazolam hydroxylation)
Assay type: in vitro ADME
APPLIED_CONDITIONS: human, human liver microsomes, probe midazolam (hydroxylation to 1′-hydroxymidazolam), 10 μM test compound, midazolam at approximately its Km
# inhibition at 10 µM per entry
All answers are understood in %, so give the number only.

Solved cases below.
C[C@@H]1CCCN(C(=O)c2cc(C#N)ccc2-n2nccn2)[C@@H]1CNc1ncc(C(F)(F)F)cn1; 40
Cc1ccc(-n2cncn2)c(C(=O)N2CCC[C@@H](C)[C@H]2CNc2nc3cc(Cl)ccc3o2)c1; 95
Cc1nc(C(=O)N2CCC[C@@H](C)[C@H]2CNc2ncc(Cl)cn2)c(-c2ccc(F)cc2)s1; 52
C[C@@H]1CCCN(C(=O)c2cc(Cl)ccc2-c2ncccn2)[C@@H]1CNc1ccc(C(F)(F)F)nn1; 73
Cc1ccc(-c2ncccn2)c(C(=O)N2CCC[C@@H](C)[C@H]2CNc2nnc(C(F)(F)F)s2)n1; 40

(Q) Give recorded inhibition at 10 µM. C[C@@H]1CCCN(C(=O)c2cc(F)ccc2-c2ncccn2)[C@@H]1CNc1ccc(C(F)(F)F)cn1
(A) 72

(Q) Give recorded inhibition at 10 µM. Cc1ccc(C(=O)N2CCC[C@@H](C)[C@H]2CNc2ncc(C(F)(F)F)cn2)c(-n2nccn2)c1F
(A) 83

(Q) Give recorded inhibition at 10 µM. Cc1cc(C(=O)N2CCC[C@@H](C)[C@H]2CNc2ccc(C(F)(F)F)cn2)c(-n2nccn2)cc1F
(A) 83

(Q) Give recorded inhibition at 10 µM. Cc1ccc(-n2cccn2)c(C(=O)N2CCC[C@@H](C)[C@H]2CNc2ccc(C(F)(F)F)nn2)c1
(A) 77

(Q) Give recorded inhibition at 10 µM. COc1ncc(-c2ccc(C)cc2C(=O)N2CCC[C@@H](C)[C@H]2CNc2nc3cc(Cl)ccc3o2)cn1
(A) 96

(Q) Give recorded inhibition at 10 µM. Cc1ccc(-c2nccs2)c(C(=O)N2CCC[C@@H](C)[C@H]2CNc2ccc(C(F)(F)F)cn2)c1
(A) 97

(Q) Give recorded inhibition at 10 µM. Cc1ccc(-c2cnn(C(C)C)c2)c(C(=O)N2CCC[C@@H](C)[C@H]2CNc2ccc(C(F)(F)F)cn2)c1
(A) 96

(Q) Give recorded inhibition at 10 µM. Cc1nc(C(=O)N2CCC[C@@H](C)[C@H]2CNc2nc3cc(F)ccc3o2)c(-c2ccc(F)cc2)s1
(A) 78

(Q) Give recorded inhibition at 10 µM. C[C@@H]1CCCN(C(=O)c2cc(Cl)ccc2-n2nccn2)[C@@H]1CNc1ccc(Cl)cn1
(A) 68

(Q) Give recorded inhibition at 10 µM. Cc1ccc(-n2ccc(C)n2)c(C(=O)N2CCC[C@@H](C)[C@H]2CNc2nnc(C(F)(F)F)s2)c1
(A) 81

(Q) Give recorded inhibition at 10 µM. Cc1cc(F)c(-c2ncccn2)c(C(=O)N2CCC[C@@H](C)[C@H]2CNc2ccc(C(F)(F)F)cn2)c1
(A) 76

(Q) Give recorded inhibition at 10 µM. Cc1cc(C(=O)N2CCC[C@@H](C)[C@H]2CNc2ncc(C(F)(F)F)cn2)c(-n2nccn2)cc1F
(A) 60

(Q) Give recorded inhibition at 10 µM. Cc1ccc(-c2cnccn2)c(C(=O)N2CCC[C@@H](C)[C@H]2CNc2ccc(C(F)(F)F)cn2)c1
(A) 96

(Q) Give recorded inhibition at 10 µM. Cc1ccc(-c2cncn2C)c(C(=O)N2CCC[C@@H](C)[C@H]2CNc2ccc(C(F)(F)F)cn2)c1
(A) 99

(Q) Give recorded inhibition at 10 µM. Cc1ccc(-c2ncccn2)c(C(=O)N2CCC(F)(F)C[C@H]2CNc2ncc(C(F)(F)F)cn2)c1
(A) 40

---

# inhibition at 10 µM per entry
SUBJECT_OF_TEST: CYP3A4 (Homo sapiens)
Construct: pre-incubated with human liver microsomes and NADPH; from tissue; host or cells: human liver microsomes
PROTOCOL_TEXT: Cytochrome P450 inhibition assay (midazolam hydroxylation)
Assay type: in vitro ADME
APPLIED_CONDITIONS: human, human liver microsomes, probe midazolam (hydroxylation to 1′-hydroxymidazolam), 10 μM test compound, midazolam at approximately its Km
All answers are understood in %, so give the number only.

Solved cases below.
Cc1ccc(-c2ccc(C)cc2C(=O)N2CCC[C@@H](C)[C@H]2CNc2ccc(C(F)(F)F)cn2)nc1 [Example A118]; 95
Cc1ccc(-c2ncccn2)c(C(=O)N2CCC[C@@H](C)[C@H]2CNc2ncc(F)cc2F)c1 [Example A182]; 65

Turning now to a further molecule:
(Q) Give recorded inhibition at 10 µM. Cc1ccc(-c2ccccn2)c(C(=O)N2CCC[C@@H](C)[C@H]2CNc2ccc(Cl)cn2)n1 [Example A169]
(A) 60

---

SUBJECT_OF_TEST: OX1 (Homo sapiens)
Construct: expressed in transfected cells; host or cells: CHO (CHO-OX1, kept under selection antibiotic)
Sequence (O43613 1-425): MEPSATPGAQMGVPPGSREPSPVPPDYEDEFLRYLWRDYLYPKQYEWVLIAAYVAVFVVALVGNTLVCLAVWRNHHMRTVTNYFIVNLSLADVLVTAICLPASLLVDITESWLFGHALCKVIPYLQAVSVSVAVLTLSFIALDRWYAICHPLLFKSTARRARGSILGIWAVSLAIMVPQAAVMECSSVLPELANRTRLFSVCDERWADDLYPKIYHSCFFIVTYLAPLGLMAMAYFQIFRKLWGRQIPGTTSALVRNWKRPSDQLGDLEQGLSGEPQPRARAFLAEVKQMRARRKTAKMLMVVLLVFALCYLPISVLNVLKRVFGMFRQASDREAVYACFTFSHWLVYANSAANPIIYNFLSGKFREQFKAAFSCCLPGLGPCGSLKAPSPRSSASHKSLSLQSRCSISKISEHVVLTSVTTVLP
PROTOCOL_TEXT: Orexin receptor cell-based functional assay, [Ca2+]i by FLIPR, CHO-OX1 cells
APPLIED_CONDITIONS: CHO-OX1 cells, [Ca2+]i by FLIPR, antagonist dose-range 0.1 nM-10 μM, EC90 of OXA; read-out: OX1
OBSERVATION_TYPE: IC50 (µM)
All answers are understood in µM, so give the number only.

Solved cases below.
Cc1ccc(-n2cc(C)cn2)c(C(=O)N2CCC[C@@H](C)[C@H]2CNc2ccc(C(F)(F)F)cn2)c1 [Example A107]; 0.004
Cc1ccc(-n2nccn2)c(C(=O)N2CCC[C@@H](C)[C@H]2CNc2ccc(C(F)(F)F)nn2)c1 [Example A119]; 0.019

Turning now to a further compound:
(Q) Recall the reported IC50 of Cc1ccc(-c2ccccn2)c(C(=O)N2CCC[C@@H](C)[C@H]2CNc2ccc(C#N)cn2)c1 [Example A60] on OX1 (Homo sapiens) and write it down.
(A) 0.49
